Sourced from patent US10239873B2

- targetOrSystem: TBK1 (Homo sapiens)
- Sequence (Q9UHD2 1-729): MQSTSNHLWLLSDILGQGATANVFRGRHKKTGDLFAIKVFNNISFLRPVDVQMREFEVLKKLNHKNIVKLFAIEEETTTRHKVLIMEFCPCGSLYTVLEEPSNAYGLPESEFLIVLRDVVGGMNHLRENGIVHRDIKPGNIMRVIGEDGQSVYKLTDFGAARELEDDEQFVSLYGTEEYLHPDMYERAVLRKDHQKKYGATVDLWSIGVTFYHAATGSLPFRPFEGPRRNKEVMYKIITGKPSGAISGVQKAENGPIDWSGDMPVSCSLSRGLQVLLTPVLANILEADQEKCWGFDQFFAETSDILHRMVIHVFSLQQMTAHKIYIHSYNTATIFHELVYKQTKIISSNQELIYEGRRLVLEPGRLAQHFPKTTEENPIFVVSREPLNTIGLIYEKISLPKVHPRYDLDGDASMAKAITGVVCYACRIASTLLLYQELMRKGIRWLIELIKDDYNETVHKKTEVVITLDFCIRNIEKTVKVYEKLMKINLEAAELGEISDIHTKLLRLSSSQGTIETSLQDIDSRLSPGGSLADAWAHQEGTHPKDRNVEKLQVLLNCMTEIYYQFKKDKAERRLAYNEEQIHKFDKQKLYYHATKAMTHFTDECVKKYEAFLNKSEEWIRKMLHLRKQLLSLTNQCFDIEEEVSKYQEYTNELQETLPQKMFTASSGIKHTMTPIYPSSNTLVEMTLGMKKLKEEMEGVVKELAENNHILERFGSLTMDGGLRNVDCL
Each entry below carries its recorded IC50.
Answer in µM, number only, no unit symbol.

Please review the entries below; each comes with its answer.
[[record]]
compound = "O=C(Cc1ccc(-c2c[nH]c3ncc(-c4ccc(CN5CCOCC5)s4)cc23)cc1)NC1CCCC1 [Example 248, 2,2,2-trifluoroacetate]"
measurementkind = "IC50"
unitabbrev = "µM"
experimentalresult = 2.1

[[record]]
compound = "CC(C)NC(=O)N1CC=C(c2c[nH]c3ncc(-c4ccc(NC5CCOCC5)cc4)cc23)CC1"
measurementkind = "IC50"
unitabbrev = "µM"
experimentalresult = 0.01

[[record]]
compound = "CCC1C=C(c2c[nH]c3ncc(-c4ccc(C(=O)N5CCN(C)CC5)cc4)cc23)CCN1C(=O)NC(C)C (stereo not drawn)"
measurementkind = "IC50"
unitabbrev = "µM"
experimentalresult = 0.018

[[record]]
compound = "CC(C)NC(=O)N1C2C=C(c3c[nH]c4ncc(-c5ccc(CN6CCOCC6)s5)cc34)CC1CC2 (stereo not drawn)"
measurementkind = "IC50"
unitabbrev = "µM"
experimentalresult = 2.7

[[record]]
compound = "Cc1ccc(-c2cnc3[nH]cc(C4=CCN(C(=O)NC(C)C)CC4)c3c2)cc1"
measurementkind = "IC50"
unitabbrev = "µM"
experimentalresult = 0.036

[[record]]
compound = "CCS(=O)(=O)c1ccc(-c2cnc3[nH]cc(C4=CCN(C(=O)NC5CCCC5)CC4)c3c2)cc1"
measurementkind = "IC50"
unitabbrev = "µM"
experimentalresult = 0.066

[[record]]
compound = "COc1ccc(-c2cnc3[nH]cc(-c4ccc(CC(=O)NC5CCCC5)cc4)c3c2)cc1OC [Example 246, 2,2,2-trifluoroacetate]"
measurementkind = "IC50"
unitabbrev = "µM"
experimentalresult = 4.1

[[record]]
compound = "CCCN1CC=C(c2c[nH]c3ncc(-c4ccc(CN5CCOCC5)s4)cc23)CC1"
measurementkind = "IC50"
unitabbrev = "µM"
experimentalresult = 1.91

[[record]]
compound = "CCC(CC)NC(=O)N1CC=C(c2c[nH]c3ncc(-c4ccc(CN5CCOCC5)s4)cc23)CC1"
measurementkind = "IC50"
unitabbrev = "µM"
experimentalresult = 0.074

[[record]]
compound = "O=C(OC1CCCC1)N1CC=C(c2c[nH]c3ncc(-c4cccc(S(=O)(=O)N5CCOCC5)c4)cc23)CC1"
measurementkind = "IC50"
unitabbrev = "µM"
experimentalresult = 0.4


Looking for the measured IC50 of `CC(=O)Nc1ccc(-c2cnc3[nH]cc(C4=CCN(C(=O)OC(C)(C)C)CC4)c3c2)cc1` , can you help?
0.17

###

- targetOrSystem: TBK1 (Homo sapiens, UniProt Q9UHD2)
- Sequence (Q9UHD2 1-729): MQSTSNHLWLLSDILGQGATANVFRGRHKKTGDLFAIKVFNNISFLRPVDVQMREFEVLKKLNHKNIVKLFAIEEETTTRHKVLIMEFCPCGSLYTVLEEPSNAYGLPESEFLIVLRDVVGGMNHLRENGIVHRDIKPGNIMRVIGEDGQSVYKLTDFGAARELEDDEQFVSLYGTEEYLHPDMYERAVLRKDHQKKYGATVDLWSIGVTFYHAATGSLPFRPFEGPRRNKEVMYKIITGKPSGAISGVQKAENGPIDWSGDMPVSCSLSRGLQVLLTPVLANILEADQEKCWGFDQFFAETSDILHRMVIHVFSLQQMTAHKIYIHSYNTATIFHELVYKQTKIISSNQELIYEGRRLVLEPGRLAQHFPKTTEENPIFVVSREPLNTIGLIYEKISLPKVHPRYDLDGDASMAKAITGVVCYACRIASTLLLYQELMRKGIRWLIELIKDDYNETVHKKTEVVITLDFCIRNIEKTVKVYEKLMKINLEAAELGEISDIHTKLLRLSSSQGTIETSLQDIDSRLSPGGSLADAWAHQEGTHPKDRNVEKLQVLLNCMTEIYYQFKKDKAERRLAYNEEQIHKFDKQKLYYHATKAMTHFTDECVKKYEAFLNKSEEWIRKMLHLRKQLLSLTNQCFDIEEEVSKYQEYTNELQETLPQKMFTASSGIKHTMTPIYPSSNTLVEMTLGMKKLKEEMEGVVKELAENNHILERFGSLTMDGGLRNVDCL
API: label(entry) gives Y if the entry's IC50 is strictly smaller than 40 nM; on equality or larger values it gives N.

[[record]]
compound = "CCC(C)NC(=O)N1CC=C(c2c[nH]c3ncc(-c4ccc(OC)c(OC)c4)cc23)CC1 (stereo not shown)"
assignedcategory = "Y"


A record lists `O=C(OC1CCCCC1)N1CC=C(c2c[nH]c3ncccc23)CC1` . Is its IC50 below 40 nM?
N

A record lists `CC(C)(C)OC(=O)N1CC=C(c2c[nH]c3ncc(-c4ccc5c(c4)OCO5)cc23)CC1` . Is its IC50 below 40 nM?
N

A record lists `COc1ccc(-c2cnc3[nH]cc(C4=CCN(C(=O)N(C)C5CCCC5)CC4)c3c2)cc1OC` . Is its IC50 below 40 nM?
N

A record lists CC(C)NC(=O)N1CCC(c2c[nH]c3ncc(-c4ccc(CN5CCOCC5)s4)cc23)=CC1C (stereo not shown) . Is its IC50 below 40 nM?
Y

A record lists `COc1ccc(-c2cnc3[nH]cc(C4=CCN(CC(C)C)CC4)c3c2)cc1OC` . Is its IC50 below 40 nM?
N

A record lists CC1C=C(c2c[nH]c3ncc(-c4ccc(S(C)(=O)=O)cc4)cc23)CCN1C(=O)NC1CCCC1 (stereo not shown) . Is its IC50 below 40 nM?
Y

A record lists CS(=O)(=O)c1ccc(-c2cnc3[nH]cc(C4=CCN(C(=O)NC5CCOC5)CC4)c3c2)cc1 (stereo not shown) . Is its IC50 below 40 nM?
Y

A record lists O=C(NC1CCCC1)N1CC=C(c2c[nH]c3ncc(-c4cc(Cl)cc(C(=O)N5CCOCC5)c4)cc23)CC1 [Example 77, 2,2,2-trifluoroacetate] . Is its IC50 below 40 nM?
N

A record lists `CC(C)NC(=O)N1CC=C(c2c[nH]c3ncc(-c4ccc(CN5CCN(C6CC6)CC5)cc4)cc23)CC1` . Is its IC50 below 40 nM?
Y

A record lists `CNS(=O)(=O)c1ccc(-c2cnc3[nH]cc(C4=CCN(C(=O)OC5CCCC5)CC4)c3c2)cc1` . Is its IC50 below 40 nM?
N

A record lists `CNS(=O)(=O)c1ccc(-c2cnc3[nH]c(C)c(C4=CCN(C(=O)NC5CCCC5)CC4)c3c2)cc1` . Is its IC50 below 40 nM?
N

A record lists CC(C)NC(=O)N1CC=C(c2c[nH]c3ncc(-c4ccc(CN5CCN(C)CC5)s4)cc23)C(C)C1 (stereo not shown) . Is its IC50 below 40 nM?
Y

A record lists `Cc1[nH]c2ncc(-c3ccc(S(N)(=O)=O)cc3)cc2c1C1=CCN(C(=O)NC2CCCC2)CC1` . Is its IC50 below 40 nM?
N

A record lists `CN1CCN(Cc2ccc(-c3cnc4[nH]cc(C5=CCN(C(=O)c6cccs6)CC5)c4c3)s2)CC1` . Is its IC50 below 40 nM?
Y

A record lists `CCN1CC=C(c2c[nH]c3ncc(-c4ccc(OC)c(OC)c4)cc23)CC1` . Is its IC50 below 40 nM?
N

A record lists `CC(C)NC(=O)N1CC=C(c2c[nH]c3ncc(-c4cccc(CN5CCOCC5)c4)cc23)CC1` . Is its IC50 below 40 nM?
Y

A record lists `COc1ccc(-c2cnc3[nH]cc(C4=CCN(C(=O)OC5CCCC5)CC4)c3c2)cc1OC` . Is its IC50 below 40 nM?
N
